Catalogue of inhibition values
target: Rho-associated protein kinase 1 (Homo sapiens); assay: Inhibition of recombinant human N-terminal GST-tagged ROCK1 catalytic domain (1 to 477 residues) expressed in baculovirus infected sf21 cells at 200 nM using LIMKtide as substrate by electrophoretic mobility shift assay relative to control
Measurement type: inhibition (%)

- COc1ccc2c(c1CN1CCNCC1)O/C(=C\c1c[nH]c3nc(C)ccc13)C2=O: 50
- COc1ccc2c(c1CN1CCNCC1)O/C(=C\c1c[nH]c3nc(F)ccc13)C2=O: 94
- CCc1ccc2c(/C=C3\Oc4c(ccc(OC)c4CN4CCNCC4)C3=O)c[nH]c2n1: 50

====

Catalogue of Papp at 10 µM values
assay: Permeability in human Caco2 cells at 10 uM; assay type: ADME, cell-based; settings: Caco-2, read-out: permeability
Measurement type: Papp at 10 µM (×10⁻⁶ cm/s)

- COc1ccc2c(c1CN1CCNCC1)O/C(=C\c1n[nH]c3ccccc13)C2=O: 0.89
- COc1ccc2c(c1CN1CCNCC1)O/C(=C\c1c[nH]c3ncccc13)C2=O: 2.1
- O=C1/C(=C/c2c[nH]c3nc(Cl)ccc23)Oc2c1ccc(O)c2CN1CCNCC1: 1.7
- COc1ccc2c(c1CN1CCNCC1)O/C(=C\c1c[nH]c3nc(C)ccc13)C2=O: 0.13
- COc1ccc2c(c1CN1CCNCC1)O/C(=C\c1c[nH]c3nc(Cl)ccc13)C2=O: 0.31
